assay target: human adenosine A1 receptor (Homo sapiens (Human))
Sequence (P30542 whole entry): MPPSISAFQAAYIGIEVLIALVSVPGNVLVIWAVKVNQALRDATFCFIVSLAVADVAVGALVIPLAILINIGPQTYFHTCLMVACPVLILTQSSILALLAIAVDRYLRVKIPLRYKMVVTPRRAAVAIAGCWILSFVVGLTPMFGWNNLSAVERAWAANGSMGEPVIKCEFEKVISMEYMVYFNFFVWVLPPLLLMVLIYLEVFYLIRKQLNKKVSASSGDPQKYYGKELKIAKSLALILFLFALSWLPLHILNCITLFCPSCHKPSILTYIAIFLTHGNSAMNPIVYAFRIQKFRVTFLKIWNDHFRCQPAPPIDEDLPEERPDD
test method notes: CHO-hA1 [3H]DPCPX binding assay (Test A)
assay setup: CHO membranes, 1 nM [3H]DPCPX, 25° C., 1 h, read-out: pKi A1 (converted)
Experimental: All test compounds were prepared as a stock solution of 10 mM in 100% DMSO.
experimental endpoint: Ki

Problem: What does the record list as Ki for Nc1nnc(-c2cc(Cl)cc(C3CC3)c2)c(-c2ccccc2)n1 ?
Solution: 0.0372 µM

Problem: Same again, this time with CC1CN(c2nnc(N)nc2-c2ccccc2)CC(C)O1 (stereo not shown)
Solution: > 10 µM

Problem: Same again, this time with Nc1nnc(Oc2ccccc2)c(-c2ccccc2)n1
Solution: > 10 µM

Problem: Same again, this time with CC1(C)CCCN(c2nnc(N)nc2-c2ccccc2)C1
Solution: > 10 µM

---

Exercise: for every item that follows, state its recorded pKi A2a.
assay target: human adenosine A2a receptor (Homo sapiens (Human))
Sequence (P29274 whole entry): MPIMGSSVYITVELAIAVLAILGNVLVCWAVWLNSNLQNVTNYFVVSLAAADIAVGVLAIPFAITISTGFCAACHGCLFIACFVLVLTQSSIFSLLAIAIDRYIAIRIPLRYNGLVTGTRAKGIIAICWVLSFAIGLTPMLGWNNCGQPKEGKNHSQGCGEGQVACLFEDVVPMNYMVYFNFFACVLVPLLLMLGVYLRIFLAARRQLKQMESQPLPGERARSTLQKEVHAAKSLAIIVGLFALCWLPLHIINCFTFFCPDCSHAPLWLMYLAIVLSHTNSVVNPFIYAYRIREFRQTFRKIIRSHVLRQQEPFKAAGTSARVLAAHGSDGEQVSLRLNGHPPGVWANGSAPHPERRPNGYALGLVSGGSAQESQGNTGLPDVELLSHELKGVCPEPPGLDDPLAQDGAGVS
test method notes: HEK293-hA2a [3H]-ZM241385 binding assay (Test A)
assay setup: HEK293 membranes, 1 nM [3H]ZM241385, 25° C., 1 h
Lab note: jot down the number only; don't add units.

Problem: What does the record list as pKi A2a for Cc1cc(-c2nnc(N)nc2-c2ccccc2F)cc(C(F)(F)F)n1 ?
Solution: 8.26

Problem: Same again, this time with COc1cc(OC)cc(-c2nnc(N)nc2-c2ccccc2)c1
Solution: 6.97

Problem: Same again, this time with CC1CCCN(c2nnc(N)nc2-c2ccccc2)C1 (centres unmarked)
Solution: 7.31

Problem: Same again, this time with Cc1cc(-c2nnc(N)nc2-c2ccccc2)cc(N2CCC2)n1
Solution: 8.52

Problem: Same again, this time with Cc1cc(-c2nnc(N)nc2-c2ccc(F)cc2)cc(N2CCC2)n1
Solution: 7.76

---

assay target: human adenosine A2a receptor (Homo sapiens (Human))
test method notes: HEK293-hA2a [3H]-ZM241385 binding assay (Test A)
assay setup: HEK293 membranes, 1 nM [3H]ZM241385, 25° C., 1 h
Exercise: for every item that follows, state its recorded pKi A2a.
Lab note: jot down the number only; don't add units.

Problem: What does the record list as pKi A2a for Cc1cc(-c2nnc(N)nc2-c2cccc(F)c2)cc(Cl)n1 ?
Solution: 8.07

Problem: Same again, this time with CC1CN(c2nnc(N)nc2-c2ccccc2)CC(C)O1 (stereo not shown)
Solution: 7.79

Problem: Same again, this time with Cc1cc(-c2nnc(N)nc2-c2ccccc2F)cc(Cl)n1
Solution: 8.03

Problem: Same again, this time with Cc1cc(-c2nnc(N)nc2-c2ccccc2)cc(Cl)n1
Solution: 8.22

---

assay target: UniProtKB P30542
test method notes: CHO-hA1 [3H]DPCPX binding assay (Test A)
assay setup: CHO membranes, 1 nM [3H]DPCPX, 25° C., 1 h
Experimental: All test compounds were prepared as a stock solution of 10 mM in 100% DMSO.
Could you please classify the records by pKi A1 using these ranges: low bracket = under 7, middle bracket = from 7 up to 8, high bracket = 8 and over

Problem: Which bin, given its pKi A1, does CC(=O)Nc1cc(-c2nnc(N)nc2-c2ccccc2)ccc1O occupy?
Solution: high bracket

Problem: Same again, this time with CN(C)c1cc(-c2nnc(N)nc2-c2ccccc2)ccn1
Solution: high bracket

Problem: Same again, this time with Cc1cn(-c2nnc(N)nc2-c2ccccc2)cc(C)c1=O
Solution: middle bracket

Problem: Same again, this time with Cc1cc(-c2nnc(N)nc2-c2cc(F)cc(F)c2)cc(C)n1
Solution: low bracket

Problem: Same again, this time with Cc1cc(-c2nnc(N)nc2-c2cccc(F)c2)cc(Cl)n1
Solution: middle bracket

Problem: Same again, this time with Cc1cc(-c2nnc(N)nc2-c2ccccc2)cc(C(F)F)n1
Solution: middle bracket

Problem: Same again, this time with CC1CCCN(c2nnc(N)nc2-c2ccccc2)C1 (stereo not shown)
Solution: low bracket

Problem: Same again, this time with [2H]C([2H])([2H])c1cc(-c2nnc(N)nc2-c2ccccc2)cc(C)n1
Solution: middle bracket

Problem: Same again, this time with Cc1csc(Nc2nnc(N)nc2-c2ccccc2)n1
Solution: low bracket

Problem: Same again, this time with Nc1nnc(-c2ccnc(C3CC3)c2)c(-c2ccccc2)n1
Solution: high bracket

Problem: Same again, this time with Nc1nnc(-c2cc(Cl)nc(C(F)F)c2)c(-c2ccccc2)n1
Solution: middle bracket

Problem: Same again, this time with Nc1nnc(N2CCOC(CO)C2)c(-c2ccccc2)n1 (stereo not shown)
Solution: middle bracket

Problem: Same again, this time with Cc1cc(-c2nnc(N)nc2-c2ccccc2F)cc(C(F)(F)F)n1
Solution: middle bracket

Problem: Same again, this time with Nc1nnc(-c2ccc(F)c(Cl)c2)c(-c2ccccc2)n1
Solution: high bracket

---

assay target: UniProtKB P30542
test method notes: CHO-hA1 [3H]DPCPX binding assay (Test A)
assay setup: CHO membranes, 1 nM [3H]DPCPX, 25° C., 1 h
experimental endpoint: pKi A1
Lab note: jot down the number only; don't add units.

Problem: What does the record list as pKi A1 for Nc1nnc(-c2cc(Cl)nc(C(F)(F)F)c2)c(-c2ccc(F)cc2)n1 ?
Solution: 6.99

Problem: Same again, this time with Cc1cc(-c2nnc(N)nc2-c2ccccc2)cc(C)c1O
Solution: 7.83

Problem: Same again, this time with Cc1cc(-c2nnc(N)nc2-c2ccc(Cl)cc2)cc(C)n1
Solution: 7.07

Problem: Same again, this time with Cc1cc(-c2nnc(N)nc2-c2ccc(F)cc2)cc(N2CCC2)n1
Solution: 6.90

Problem: Same again, this time with Nc1nnc(-c2ccc3occc3c2)c(-c2ccccc2)n1
Solution: 8.20

Problem: Same again, this time with Nc1nnc(-c2cc(Cl)nc(CF)c2)c(-c2ccccc2)n1
Solution: 7.17

Problem: Same again, this time with Cc1cc(-c2nnc(N)nc2-c2ccc(F)cc2)cc(C(F)(F)F)n1
Solution: 6.93

Problem: Same again, this time with Cc1cc(-c2nnc(N)nc2-c2ccccc2)cc(N2CCC2)n1
Solution: 8.05

Problem: Same again, this time with COc1cc(OC)cc(-c2nnc(N)nc2-c2ccccc2)c1
Solution: 8.03

Problem: Same again, this time with Nc1nnc(-c2cccc(C(F)(F)F)c2)c(-c2ccccc2)n1
Solution: 7.81

Problem: Same again, this time with Cc1cc(-c2nnc(N)nc2-c2ccccc2)cc(C)[n+]1[O-]
Solution: 7.12

Problem: Same again, this time with Cc1ccc(Sc2nnc(N)nc2-c2ccccc2)cc1
Solution: 7.00

Problem: Same again, this time with Cc1ncccc1Oc1nnc(N)nc1-c1ccccc1
Solution: 8.07

Problem: Same again, this time with Nc1nnc(-c2ccc3cc[nH]c3c2)c(-c2ccccc2)n1
Solution: 6.91

Problem: Same again, this time with Nc1nnc(-n2ccc(=O)cc2)c(-c2ccccc2)n1
Solution: 7.15

Problem: Same again, this time with Cc1cc(-c2nnc(N)nc2-c2ccccc2F)cc(Cl)n1
Solution: 6.93

Problem: Same again, this time with Cc1cc(Cl)cc(-c2nnc(N)nc2-c2ccccc2)c1
Solution: 6.87
